# Assay System: hAhR (Homo sapiens, UniProt P35869)
# Construct: Stably integrated DRE-luciferase cell lines were generated by transducing the both cell lines with Cignal XRE luciferase reporter; endogenous in cells
# Sequence (P35869 11-848): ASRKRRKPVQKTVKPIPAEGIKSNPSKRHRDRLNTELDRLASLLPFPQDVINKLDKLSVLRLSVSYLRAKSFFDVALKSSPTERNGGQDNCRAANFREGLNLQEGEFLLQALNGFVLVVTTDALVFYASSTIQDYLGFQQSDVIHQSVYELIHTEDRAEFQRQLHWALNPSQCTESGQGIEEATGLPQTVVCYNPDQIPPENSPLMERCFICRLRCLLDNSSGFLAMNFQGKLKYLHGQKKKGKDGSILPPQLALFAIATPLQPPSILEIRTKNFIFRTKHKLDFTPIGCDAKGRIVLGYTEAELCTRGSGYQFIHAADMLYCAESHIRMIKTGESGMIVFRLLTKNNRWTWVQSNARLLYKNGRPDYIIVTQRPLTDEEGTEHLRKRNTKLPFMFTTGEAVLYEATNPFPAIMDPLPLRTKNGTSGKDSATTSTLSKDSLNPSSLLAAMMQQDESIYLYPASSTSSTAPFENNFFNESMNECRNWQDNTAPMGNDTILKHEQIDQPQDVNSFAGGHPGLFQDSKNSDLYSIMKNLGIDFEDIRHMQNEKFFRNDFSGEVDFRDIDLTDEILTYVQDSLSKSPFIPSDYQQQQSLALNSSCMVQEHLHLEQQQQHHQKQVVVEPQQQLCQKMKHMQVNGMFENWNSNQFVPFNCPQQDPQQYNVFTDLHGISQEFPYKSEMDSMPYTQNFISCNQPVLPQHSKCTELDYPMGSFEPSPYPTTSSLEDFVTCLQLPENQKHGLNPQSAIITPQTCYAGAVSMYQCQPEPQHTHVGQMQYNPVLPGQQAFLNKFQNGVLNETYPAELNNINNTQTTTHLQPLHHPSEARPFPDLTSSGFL
# Test Protocol: DRE-luciferase transcriptional reporter assay in HEPG2 DRE-Luc cells, TCDD-induced (antagonist mode)
# Measurement Conditions: relative IC50, 3 nM TCDD, 24-hour incubation, firefly luciferase readout
Documented IC50 across a set of compounds
Result Type: IC50

- Cc1cc(-c2ncc3cc(C(F)(F)F)ccc3n2)ccc1N1CCn2nc(C(C)N3CCOCC3)c(C)c2C1=O (stereo not shown): < 0.2 µM
- Cc1cc(-c2ncc3cc(F)ccc3n2)ccc1N1CCOc2cnn(C)c2C1=O: 0.2 to 0.5 µM
- Cc1cc(-c2ncc3cc(C(F)(F)F)ccc3n2)ccc1N1CCn2nc(C(=O)N3CCOCC3)c(C)c2C1: < 0.2 µM
- Cc1cc(N2CCn3ncc(C)c3C2=O)c(F)cc1-c1ccc2cc(C(F)(F)F)ccc2n1: < 0.2 µM
